- System name: Melanocortin receptor 4 (Homo sapiens, UniProt P32245)
- Sequence (P32245 whole entry): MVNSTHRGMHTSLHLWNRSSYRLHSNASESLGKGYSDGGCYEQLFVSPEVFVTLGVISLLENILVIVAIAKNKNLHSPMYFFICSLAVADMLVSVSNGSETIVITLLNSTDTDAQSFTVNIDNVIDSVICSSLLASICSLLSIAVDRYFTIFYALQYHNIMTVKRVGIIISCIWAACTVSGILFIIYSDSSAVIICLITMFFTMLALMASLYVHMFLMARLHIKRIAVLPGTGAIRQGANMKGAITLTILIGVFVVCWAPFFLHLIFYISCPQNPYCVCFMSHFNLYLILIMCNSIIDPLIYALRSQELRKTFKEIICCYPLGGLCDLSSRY
- Protocol: Displacement of [125I]NDP-alpha-MSH from human MC4R expressed in HEK293 cells by competitive binding assay
- Format: cell-based
Measurement kind: pIC50
Numbers only, as −log10 of the molar value.

Here's what some known entries look like.
Molecular string	pIC50
CCCC[C@H](NC(C)=O)C(=O)N[C@H]1CSCc2ccc(cc2)CSC(C)(C)[C@@H](C(N)=O)NC(=O)[C@H](Cc2c[nH]c3ccccc23)NC(=O)[C@H](CCCNC(=N)N)NC(=O)[C@@H](Cc2ccccc2)NC(=O)[C@H](Cc2c[nH]cn2)NC1=O	7.24
CCCC[C@H](NC(C)=O)C(=O)N[C@H]1CSCc2ccccc2CSC[C@@H](C(N)=O)NC(=O)[C@H](Cc2c[nH]c3ccccc23)NC(=O)[C@H](CCCNC(=N)N)NC(=O)[C@@H](Cc2ccccc2)NC(=O)[C@H](Cc2c[nH]cn2)NC1=O	8.04

Could you now consider this next compound?
(Q) Record request: pIC50 value, item "CCCC[C@H](NC(C)=O)C(=O)N[C@H]1CSCc2ccccc2CSC(C)(C)[C@@H](C(N)=O)NC(=O)[C@H](Cc2c[nH]c3ccccc23)NC(=O)[C@H](CCCNC(=N)N)NC(=O)[C@@H](Cc2ccccc2)NC(=O)[C@H](Cc2c[nH]cn2)NC1=O"
(A) 7.34
